assay protocol: Pharmacokinetics after intravenous and subcutaneous administration in cynomolgus monkeys
Assay type: in vivo
condition notes: cynomolgus monkey, plasma; Intravenous Solution, 1.76 mg/kg, n = 4
assay readout: clearance

INPUT: Recorded clearance of N=C(N)c1ccc2nc(-c3cc(CC(=O)N[C@@H](CC(=O)O)C(=O)O)cc(-c4cc(S(N)(=O)=O)ccc4O)c3O)[nH]c2c1 , please.
OUTPUT: 1.4 mL/min/kg

---

assay protocol: Pharmacokinetics after intravenous and subcutaneous administration in cynomolgus monkeys
Assay type: in vivo
condition notes: cynomolgus monkey, plasma, sc, 10.7 mg/kg, Subcutaneous Gel, 10.7 mg/kg, n = 3; read-out: Terminal t1/2 (converted)
assay readout: half-life (h)
Give bare numbers, in h.

INPUT: Recorded half-life of N=C(N)c1ccc2nc(-c3cc(CC(=O)N[C@@H](CC(=O)O)C(=O)O)cc(-c4cc(S(N)(=O)=O)ccc4O)c3O)[nH]c2c1 , please.
OUTPUT: 7.43

---

assay protocol: Toxicology study, 28 or 29 days subcutaneous, cynomolgus monkeys
Assay type: in vivo
condition notes: cynomolgus monkey, in vivo, sc, subcutaneous administration for 28 or 29 consecutive days; read-out: NOAEL as HED
assay readout: NOAEL (mg/kg/day)
Numbers only, in mg/kg/day.

INPUT: Recorded NOAEL of N=C(N)c1ccc2nc(-c3cc(CC(=O)N[C@@H](CC(=O)O)C(=O)O)cc(-c4cc(S(N)(=O)=O)ccc4O)c3O)[nH]c2c1 [compound of Formula I] , please.
OUTPUT: 0.96

---

assay protocol: Pharmacokinetics after intravenous and subcutaneous administration in cynomolgus monkeys
Format: in vivo
condition notes: cynomolgus monkey, plasma, iv, 1.76 mg/kg, Intravenous Solution, 1.76 mg/kg, n = 4; read-out: t1/2 γ (converted)
assay readout: half-life

INPUT: Recorded half-life of N=C(N)c1ccc2nc(-c3cc(CC(=O)N[C@@H](CC(=O)O)C(=O)O)cc(-c4cc(S(N)(=O)=O)ccc4O)c3O)[nH]c2c1 [compound of Formula I] , please.
OUTPUT: 7.07 h
